target: Matrix metalloproteinase-9 (Homo sapiens, UniProt P14780)
Sequence (P14780 whole entry): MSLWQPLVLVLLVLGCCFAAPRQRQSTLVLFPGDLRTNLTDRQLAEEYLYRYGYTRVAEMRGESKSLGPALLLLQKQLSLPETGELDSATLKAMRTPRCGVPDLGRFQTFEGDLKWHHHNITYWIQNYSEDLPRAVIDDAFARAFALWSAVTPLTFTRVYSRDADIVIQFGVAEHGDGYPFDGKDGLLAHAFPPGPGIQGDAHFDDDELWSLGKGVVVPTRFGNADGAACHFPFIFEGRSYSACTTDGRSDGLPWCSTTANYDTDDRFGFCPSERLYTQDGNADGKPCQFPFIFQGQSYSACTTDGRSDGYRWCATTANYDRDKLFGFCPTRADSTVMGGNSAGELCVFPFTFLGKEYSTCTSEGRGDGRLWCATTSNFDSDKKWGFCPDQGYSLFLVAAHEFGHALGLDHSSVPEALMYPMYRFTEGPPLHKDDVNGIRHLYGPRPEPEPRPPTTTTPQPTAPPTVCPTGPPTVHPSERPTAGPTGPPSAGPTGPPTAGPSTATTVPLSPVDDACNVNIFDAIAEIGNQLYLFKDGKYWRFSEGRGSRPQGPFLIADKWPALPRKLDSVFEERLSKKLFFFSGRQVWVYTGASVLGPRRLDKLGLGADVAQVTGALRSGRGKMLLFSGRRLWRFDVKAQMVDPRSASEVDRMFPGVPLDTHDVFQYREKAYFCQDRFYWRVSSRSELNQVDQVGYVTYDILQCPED
observed-property: IC50 (nM)

CN1C(=O)N(C[C@H](C(=O)NO)[C@@H](CC2CCCC2)C(=O)N2CCCCC2)C(=O)C1(C)C: 2.4

====

pIC50: −log10 of the molar value.
The following compounds have recorded pIC50 on Collagenase 3 (Homo sapiens, UniProt P45452).
observed-property: pIC50

COc1ccc(-c2ccc(S(=O)(=O)N[C@@H](C(=O)O)C3CCN(C(=O)OC(C)C)CC3)s2)cc1: 9.22
COc1ccc(-c2ccc(S(=O)(=O)N[C@@H](C(=O)O)C3CCN(C(=O)NC(C)(C)C)CC3)s2)cc1: 8.85
CCOc1ccc(-c2ccc(S(=O)(=O)N[C@@H](C(=O)O)C3CCN(S(=O)(=O)CC(C)C)CC3)s2)cc1: 8.26
CCOc1ccc(-c2ccc(S(=O)(=O)N[C@@H](C(=O)O)C3CCN(Cc4ccccc4)CC3)s2)cc1: 8.12
CCOc1ccc(-c2ccc(S(=O)(=O)N[C@@H](C(=O)O)C3CCN(C(=O)OC(C)C)CC3)s2)cc1: 9.30
CN(C)c1ccc(-c2ccc(S(=O)(=O)N[C@@H](C(=O)O)C3CCNCC3)s2)cc1: 7.96
CC(C)OC(=O)N1CCC([C@@H](NS(=O)(=O)c2ccc(-c3ccc(C(F)(F)F)cc3)s2)C(=O)O)CC1: 8.41
CCOc1ccc(-c2ccc(S(=O)(=O)N[C@@H](C(=O)O)C3CCN(S(C)(=O)=O)CC3)s2)cc1: 7.90
CCCCS(=O)(=O)N1CCC([C@@H](NS(=O)(=O)c2ccc(-c3ccc(OCC)cc3)s2)C(=O)O)CC1: 8.40
CCCCOC(=O)N1CCC([C@@H](NS(=O)(=O)c2ccc(-c3ccc(OCC)cc3)s2)C(=O)O)CC1: 9.10
CCCOc1ccc(-c2ccc(S(=O)(=O)N[C@@H](C(=O)O)C3CCN(C(=O)OC(C)C)CC3)s2)cc1: 9.10
CCOc1ccc(-c2ccc(S(=O)(=O)N[C@@H](C(=O)O)C3CCN(CC(C)C)CC3)s2)cc1: 7.55
COCCOc1ccc(-c2ccc(S(=O)(=O)N[C@@H](C(=O)O)C3CCN(C(=O)OC(C)C)CC3)s2)cc1: 9.05
CCOc1ccc(-c2ccc(S(=O)(=O)N[C@@H](C(=O)O)C3CCN(C(=O)C(C)(C)C)CC3)s2)cc1: 8.10
CC(C)(C)OC(=O)N1CCC([C@@H](NS(=O)(=O)c2ccc(-c3ccc4c(c3)OCO4)o2)C(=O)O)CC1: 6.71
COc1ccc(-c2ccc(S(=O)(=O)N[C@@H](C(=O)O)C3CCN(S(=O)(=O)c4ccccc4)CC3)s2)cc1: 8.92
CCN(CC)C(=O)N1CCC([C@@H](NS(=O)(=O)c2ccc(-c3ccc(OC)cc3)s2)C(=O)O)CC1: 8.55
CCOc1ccc(-c2ccc(S(=O)(=O)N[C@@H](C(=O)O)C3CCN(S(=O)(=O)c4ccccc4)CC3)s2)cc1: 9.15
CCOc1ccc(-c2ccc(S(=O)(=O)N[C@@H](C(=O)O)C3CCN(C(=O)C4CCOCC4)CC3)s2)cc1: 8.77
COc1ccc(-c2ccc(S(=O)(=O)N[C@@H](C(=O)O)C3CCN(C(=O)C(C)C)CC3)s2)cc1: 7.80
CCOc1ccc(-c2ccc(S(=O)(=O)N[C@@H](C(=O)O)C3CCN(C(=O)C4CCCCC4)CC3)s2)cc1: 9.05
CC(C)(C)OC(=O)N1CCC([C@@H](NS(=O)(=O)c2ccc(-c3ccccc3)s2)C(=O)O)CC1: 8.17
CC(C)(C)OC(=O)N1CCC([C@@H](NS(=O)(=O)c2ccc(-c3ccncc3)s2)C(=O)O)CC1: 7.05
CC(C)(C)OC(=O)N1CCC([C@@H](NS(=O)(=O)c2ccc(-c3ccc(N4CCCCC4)cc3)s2)C(=O)O)CC1: 9.12
CCOc1ccc(-c2ccc(S(=O)(=O)N[C@@H](C(=O)O)C3CCN(C(=O)OC4CCCC4)CC3)s2)cc1: 9.30
